system: 519858-162-T-J1-PDC spheroid growth inhibition; experiment: Anticancer human tumor 519858-162-T-J1-PDC patient-derived colon adenocarcinoma cell line growth inhibition [TAK]; details: second compound 30 µM; first compound 0.1 µM; stronger effect = lower value; spheroids with HUVEC and MSC;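 note: each agent tested in combination with TAK-243 or ipatasertib; spheroids exposed to drugs for 7 days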
Measured Property: viability, T/C (%)
Lab book: enter the figure in %, no units written.

For the compound shown here, COC1CC2CCC(C)C(O)(O2)C(=O)C(=O)N2CCCCC2C(=O)OC(C(C)CC2CCC(OCCO)C(OC)C2)CC(=O)C(C)C=C(C)C(O)C(OC)C(=O)C(C)CC(C)C=CC=CC=C1C (stereo not drawn) + CC(C)NCC(C(=O)N1CCN(c2ncnc3c2C(C)CC3O)CC1)c1ccc(Cl)cc1 , give the reported viability, T/C.
72.6

Queued: Cc1nc(NC(=O)N2CCCC2C(N)=O)sc1-c1ccnc(C(C)(C)C(F)(F)F)c1 (stereo not drawn) + CC(C)NCC(C(=O)N1CCN(c2ncnc3c2C(C)CC3O)CC1)c1ccc(Cl)cc1
82

Queued: CC(C)n1nc(-c2ccc3oc(N)nc3c2)c2c(N)ncnc21 + CC(C)NCC(C(=O)N1CCN(c2ncnc3c2C(C)CC3O)CC1)c1ccc(Cl)cc1
72.2
